Where do the numbers come from? From patent US20090291945A1.

Catalogue of IC50 values
Molecular target: cathepsin K (Homo sapiens)
Construct: the active enzyme was obtained as the enzyme fraction by using detergent containing lysis buffer; made in house; host or cells: HEK293T (GenHunter Corporation), transient expression; detergent lysate used as enzyme fraction
Sequence (P43235 115-329): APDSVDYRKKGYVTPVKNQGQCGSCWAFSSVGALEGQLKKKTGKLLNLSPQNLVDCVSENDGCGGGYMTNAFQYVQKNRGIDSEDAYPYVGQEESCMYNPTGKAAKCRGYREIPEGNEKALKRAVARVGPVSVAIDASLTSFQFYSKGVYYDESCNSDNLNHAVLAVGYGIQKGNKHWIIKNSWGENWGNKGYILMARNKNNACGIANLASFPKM
Assay: Cathepsin K inhibitory activity (fluorescent substrate Z-Leu-Arg-MCA)
Type: biochemical
Settings: enzyme expressed in HEK293T; 15 min preincubation, 30 min reaction at room temperature, pH 5.5; read-out: Activity Intensity (cathepsin K inhibitory activity, pIC50 class) (converted)

Example results:
- CC[C@@H](CNc1ccc(N2CCOCC2)cc1)NC(=O)[C@H](CC(C)C)N[C@@H](c1ccccn1)C(F)(F)F: ≤ 3.16 nM
- CC[C@@H](CNc1ccc(OCC(=O)O)cc1OC)NC(=O)[C@H](CC(C)C)N[C@@H](c1cccnc1)C(F)(F)F: 3.16 to 31.6 nM
- CC[C@@H](CNc1ccc(OC)cc1OC)NC(=O)[C@H](CC(C)C)N[C@@H](c1ccc(O)cc1)C(F)(F)F: 3.16 to 31.6 nM

Now for another entry.
Any idea what IC50 was measured for `CC[C@@H](CNc1ccc(OC)cc1OC)NC(=O)[C@H](CC(C)(C)C)N[C@@H](c1ccccc1)C(F)(F)F` ?
≤ 3.16 nM

----------
Catalogue of IC50 values
Target: cathepsin K (Homo sapiens)
Construct: the active enzyme was obtained as the enzyme fraction by using detergent containing lysis buffer; made in house; host or cells: HEK293T (GenHunter Corporation), transient expression; detergent lysate used as enzyme fraction
Assay: Cathepsin K inhibitory activity (fluorescent substrate Z-Leu-Arg-MCA)
Type: biochemical
Conditions: enzyme expressed in HEK293T; 15 min preincubation, 30 min reaction at room temperature, pH 5.5; read-out: Activity Intensity (cathepsin K inhibitory activity, pIC50 class) (converted)

Example results:
* CC[C@@H](CNc1ccc(N2CCC[C@@H](C(=O)O)C2)cc1)NC(=O)[C@H](CC(C)(C)F)N[C@@H](c1ccccc1)C(F)(F)F [Compound 152] | ≤ 3.16 nM
* COc1ccc(NC[C@H](CO)NC(=O)[C@H](CC(C)(C)F)N[C@@H](c2ccc(-c3ccc(S(C)(=O)=O)cc3)cc2)C(F)(F)F)cc1 [Compound 3] | 3.16 to 31.6 nM
* CC[C@@H](CNc1ccc(-n2cccn2)cc1)NC(=O)[C@H](CC(C)C)N[C@@H](c1ccccc1)C(F)(F)F [Compound 47] | 31.6 to 10000 nM
* CC[C@@H](CNc1ccc(OC2(C(=O)O)CC2)cc1OC)NC(=O)[C@H](CC(C)(C)F)N[C@@H](c1ccccc1)C(F)(F)F [Compound 118] | ≤ 3.16 nM
* CCOC(=O)C1CCN(c2ccc(NC[C@H](CC)NC(=O)[C@H](CC(C)C)N[C@@H](c3ccccc3)C(F)(F)F)cc2)CC1 [Compound 49] | ≤ 3.16 nM

Any idea what IC50 was measured for CC[C@@H](CNc1ccc(OCCSC)cc1OC)NC(=O)[C@H](CC(C)(C)F)N[C@@H](c1ccc(Br)cc1)C(F)(F)F [Compound 16] ?
≤ 3.16 nM

Any idea what IC50 was measured for CC[C@@H](CNc1ccc(OCC(=O)O)cc1OC)NC(=O)[C@H](CC(C)C)N[C@@H](c1ccccc1)C(F)(F)F [Compound 119] ?
≤ 3.16 nM

Any idea what IC50 was measured for CC[C@@H](CNc1ccc(OC)cc1OC)NC(=O)[C@H](CC(C)C)N[C@@H](c1ccc(OC)nc1)C(F)(F)F [Compound 25] ?
3.16 to 31.6 nM

Any idea what IC50 was measured for CC(C)C[C@H](N[C@@H](c1ccccc1)C(F)(F)F)C(=O)N[C@H](CNc1ccc(N2CCOCC2)cc1)CC(=O)OCc1ccccc1 [Compound 69] ?
≤ 3.16 nM

Any idea what IC50 was measured for CC[C@@H](CNc1ccc(-n2cccn2)cc1)NC(=O)[C@H](CC(C)C)N[C@@H](c1ccc(OC)nc1)C(F)(F)F [Compound 48] ?
31.6 to 10000 nM

Any idea what IC50 was measured for CC(C)C[C@H](N[C@@H](c1ccccc1)C(F)(F)F)C(=O)N[C@@H](CCOCc1ccccc1)CNc1ccc(N2CCOCC2)cc1 [Compound 87] ?
≤ 3.16 nM

Any idea what IC50 was measured for CC[C@@H](CNc1ccc(OCC(N)=O)cc1OC)NC(=O)[C@H](CC(C)(C)F)N[C@@H](c1ccccc1)C(F)(F)F [Compound 133] ?
≤ 3.16 nM

Any idea what IC50 was measured for COc1ccc(NC[C@H](CC(C)C)NC(=O)[C@H](CC(C)C)N[C@@H](c2ccccc2)C(F)(F)F)c(OC)c1 [Compound 64] ?
≤ 3.16 nM

Any idea what IC50 was measured for CC[C@@H](CNc1ccc(OC(C)C(=O)O)cc1OC)NC(=O)[C@H](CC(C)(C)F)N[C@@H](c1ccccc1)C(F)(F)F (stereo partly shown) [Compound 140] ?
3.16 to 31.6 nM

Any idea what IC50 was measured for CC(C)C[C@H](N[C@@H](c1ccccc1)C(F)(F)F)C(=O)N[C@@H](CCCCNC(=O)OCc1ccccc1)CNc1ccc(N2CCOCC2)cc1 [Compound 102] ?
≤ 3.16 nM
